Test system: MDA-MB-231
METHOD_DESCRIPTION: Real time cell proliferation, IncuCyte ZOOM, 72 hours
Type: cell-based
CONDITION_CONTEXT: Homo sapiens, MDA-MB-231, 72 h
pIC50: −log10 of the molar value.
pIC50: recorded values

[
  {
    "MOLECULE": "Cc1ccc(C(=O)Nc2ccc(Cl)c(C(F)(F)F)c2)cc1C#Cc1cnc2c(Nc3cnn(C)c3)cccn12",
    "RELATION": "<",
    "pIC50": 5.00
  },
  {
    "MOLECULE": "COCCn1cc(Nc2cccn3c(C#Cc4cc(C(=O)Nc5cc(C(C)(C)C(F)(F)F)on5)ccc4C)cnc23)cn1",
    "RELATION": "=",
    "pIC50": 5.89
  },
  {
    "MOLECULE": "CN1CCN(Cc2ccc(NC(=O)c3cccc(C#Cc4cnc5c(Nc6cnn(C)c6)cccn45)c3)cc2C(F)(F)F)CC1",
    "RELATION": "=",
    "pIC50": 6.54
  },
  {
    "MOLECULE": "Cc1ccc(C(=O)Nc2ccc3ncsc3c2)cc1C#Cc1cnc2c(Nc3cnn(C)c3)cccn12",
    "RELATION": "<",
    "pIC50": 5.00
  },
  {
    "MOLECULE": "CCn1cc(Nc2cccn3c(C#Cc4cc(C(=O)Nc5ccc(N6CCOCC6)c(F)c5)ccc4C)cnc23)cn1",
    "RELATION": "<",
    "pIC50": 5.00
  },
  {
    "MOLECULE": "COc1ccc(NC(=O)c2ccc(C)c(C#Cc3cnc4c(Nc5cnn(C)c5)cccn34)c2)cc1F",
    "RELATION": "<",
    "pIC50": 5.00
  },
  {
    "MOLECULE": "Cc1ccc(C(=O)Nc2ccc(CN3CCN(C)CC3)c(C(F)(F)F)c2)cc1C#Cc1cnc2c(Nc3cnn(C(C)C)c3)cccn12",
    "RELATION": "=",
    "pIC50": 6.20
  }
]

---

Test system: MDA-MB-231
METHOD_DESCRIPTION: Real time cell proliferation, IncuCyte ZOOM, 72 hours
Type: cell-based
CONDITION_CONTEXT: Homo sapiens, MDA-MB-231, 72 h
# reported IC50; entries follow
ENDPOINT_NAME: IC50 (nM)

[
  {
    "MOLECULE": "Cc1ccc(C(=O)Nc2cccc(C(F)(F)F)c2)cc1C#Cc1cnc2c(Nc3cnn(C4CCN(C)CC4)c3)cccn12",
    "RECORDED_VALUE": 1160
  },
  {
    "MOLECULE": "COCCCn1cc(Nc2cccn3c(C#Cc4cc(C(=O)Nc5ccc(CN6CCN(C)CC6)c(C(F)(F)F)c5)ccc4C)cnc23)cn1",
    "RECORDED_VALUE": 219
  },
  {
    "MOLECULE": "Cc1ccc(C(=O)Nc2cccc(C(F)(F)F)c2)cc1C#Cc1cnc2c(Nc3cnn(CCCN(C)C)c3)cccn12",
    "RECORDED_VALUE": 3060
  },
  {
    "MOLECULE": "CCN1CCN(Cc2ccc(NC(=O)c3ccc(C)c(C#Cc4cnc5c(Nc6cnn(CC)c6)cccn45)c3)cc2C(F)(F)F)CC1",
    "RECORDED_VALUE": 342
  },
  {
    "MOLECULE": "Cc1ccc(C(=O)Nc2ccc(CN3CCCN(C)CC3)c(C(F)(F)F)c2)cc1C#Cc1cnc2c(Nc3cnn(CCCN(C)C)c3)cccn12",
    "RECORDED_VALUE": 1460
  },
  {
    "MOLECULE": "COCCn1cc(Nc2cccn3c(C#Cc4cc(C(=O)Nc5ccc(CN6CCN(C)CC6)c(C(F)(F)F)c5)ccc4C)cnc23)cn1",
    "RECORDED_VALUE": 74
  },
  {
    "MOLECULE": "Cc1ccc(C(=O)Nc2cccc(C(F)(F)F)c2)cc1C#Cc1cnc2c(Nc3cnn(CCN(C)C)c3)cccn12",
    "RECORDED_VALUE": 1120
  }
]
